# system: Beta-secretase 1 (Homo sapiens, UniProt P56817)
# Sequence (P56817 whole entry): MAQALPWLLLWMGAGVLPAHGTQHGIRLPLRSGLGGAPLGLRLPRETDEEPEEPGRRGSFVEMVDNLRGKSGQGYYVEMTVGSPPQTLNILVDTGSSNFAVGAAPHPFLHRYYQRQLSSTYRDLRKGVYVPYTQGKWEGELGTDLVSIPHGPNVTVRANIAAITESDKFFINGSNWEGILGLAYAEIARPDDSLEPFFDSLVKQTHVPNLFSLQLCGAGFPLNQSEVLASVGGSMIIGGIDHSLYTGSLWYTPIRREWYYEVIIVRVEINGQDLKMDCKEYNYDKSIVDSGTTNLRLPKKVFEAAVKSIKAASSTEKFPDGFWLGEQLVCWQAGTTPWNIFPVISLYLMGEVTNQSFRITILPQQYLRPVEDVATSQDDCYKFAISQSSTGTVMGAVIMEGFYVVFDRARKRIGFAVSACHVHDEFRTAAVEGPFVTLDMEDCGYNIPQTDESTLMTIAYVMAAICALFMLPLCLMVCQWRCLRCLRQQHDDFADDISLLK
# testMethodNotes: Inhibition of recombinant human BACE1 at 2 uM by FRET analysis
metricName: inhibition (%)

C[C@@H](NC(=O)c1cc(C(=O)N[C@@H](Cc2ccccc2)[C@@H](O)C(=O)Nc2ncc([N+](=O)[O-])s2)cc(N(C)S(C)(=O)=O)c1)c1ccccc1	96
Cc1nnc(NC(=O)[C@H](O)[C@H](Cc2ccccc2)NC(=O)c2cc(C(=O)N[C@H](C)c3ccccc3)cc(N(C)S(C)(=O)=O)c2)s1	90
CSc1nnc(NC(=O)[C@H](O)[C@H](Cc2ccccc2)NC(=O)c2cc(C(=O)N[C@H](C)c3ccccc3)cc(N(C)S(C)(=O)=O)c2)s1	84
C[C@@H](NC(=O)c1cc(C(=O)N[C@@H](Cc2ccccc2)[C@@H](O)C(=O)Nc2nnc(Br)s2)cc(N(C)S(C)(=O)=O)c1)c1ccccc1	97

[P] C[C@@H](NC(=O)c1cc(C(=O)N[C@@H](Cc2ccccc2)[C@@H](O)C(=O)Nc2nnc(-c3ccccc3)s2)cc(N(C)S(C)(=O)=O)c1)c1ccccc1
[Q] C[C@@H](NC(=O)c1cc(C(=O)N[C@@H](Cc2ccccc2)[C@@H](O)C(=O)Nc2nnc(C(F)(F)F)s2)cc(N(C)S(C)(=O)=O)c1)c1ccccc1
Short answer wanted: higher inhibition, P or Q ? // return label of chosen record Q
(Q: 96%, P: 43%)

====

# system: Beta-secretase 1 (Homo sapiens, UniProt P56817)
# testMethodNotes: Inhibition of recombinant human BACE1 at 2 uM by FRET analysis
metricName: inhibition (%)

Answered examples (3):
CCSc1nnc(NC(=O)[C@H](O)[C@H](Cc2ccccc2)NC(=O)c2cc(C(=O)N[C@H](C)c3ccccc3)cc(N(C)S(C)(=O)=O)c2)s1	86
COC(=O)c1cnc(NC(=O)[C@H](O)[C@H](Cc2ccccc2)NC(=O)c2cc(C(=O)N[C@H](C)c3ccccc3)cc(N(C)S(C)(=O)=O)c2)s1	87
C[C@@H](NC(=O)c1cc(C(=O)N[C@@H](Cc2ccccc2)[C@@H](O)C(=O)Nc2nnc(-c3ccncc3)s2)cc(N(C)S(C)(=O)=O)c1)c1ccccc1	49

[a] COC(=O)c1csc(NC(=O)[C@H](O)[C@H](Cc2ccccc2)NC(=O)c2cc(C(=O)N[C@H](C)c3ccccc3)cc(N(C)S(C)(=O)=O)c2)n1
[b] C[C@@H](NC(=O)c1cc(C(=O)N[C@@H](Cc2ccccc2)[C@@H](O)C(=O)Nc2ncc(Br)s2)cc(N(C)S(C)(=O)=O)c1)c1ccccc1
Of a and b , which shows the smaller inhibition value? Answer by quoting the chosen item's label. a
(a: 30%, b: 78%)

====

# system: Beta-secretase 1 (Homo sapiens, UniProt P56817)
# testMethodNotes: Inhibition of recombinant human BACE1 by FRET analysis
metricName: IC50 (nM)
API: value field is a number in nM; no unit string.

Specify IC50 for C[C@@H](NC(=O)c1cc(C(=O)N[C@@H](Cc2ccccc2)[C@@H](O)C(=O)Nc2nnc(Br)s2)cc(N(C)S(C)(=O)=O)c1)c1ccccc1 and stop. 26

====

# system: Beta-secretase 1 (Homo sapiens, UniProt P56817)
# testMethodNotes: Inhibition of recombinant human BACE1 at 0.2 uM by FRET analysis
metricName: inhibition (%)

C[C@@H](NC(=O)c1cc(C(=O)N[C@@H](Cc2ccccc2)[C@@H](O)C(=O)Nc2nncs2)cc(N(C)S(C)(=O)=O)c1)c1ccccc1	39
Cc1nnc(NC(=O)[C@H](O)[C@H](Cc2ccccc2)NC(=O)c2cc(C(=O)N[C@H](C)c3ccccc3)cc(N(C)S(C)(=O)=O)c2)s1	50
CCSc1nnc(NC(=O)[C@H](O)[C@H](Cc2ccccc2)NC(=O)c2cc(C(=O)N[C@H](C)c3ccccc3)cc(N(C)S(C)(=O)=O)c2)s1	45

[A] C[C@@H](NC(=O)c1cc(C(=O)N[C@@H](Cc2ccccc2)[C@@H](O)C(=O)Nc2nnc(C(F)(F)F)s2)cc(N(C)S(C)(=O)=O)c1)c1ccccc1
[B] CSc1nnc(NC(=O)[C@H](O)[C@H](Cc2ccccc2)NC(=O)c2cc(C(=O)N[C@H](C)c3ccccc3)cc(N(C)S(C)(=O)=O)c2)s1
Identify the entry with the smaller inhibition: A or B . Return value: the label identifying the chosen record. B

The reported measurements were obtained from ChEMBL document CHEMBL2440003.
